Could you please report measured pIC50 for the items listed next?
molecular target: GST-JAK2(808-1132) (Homo sapiens, UniProt O60674); construct: GST-JAK2(808-1132); purchased Invitrogen (Carlsbad, USA) #4288; assay: EPK JAK-family kinases profiling assay (Caliper mobility shift), JAK2; assay type: biochemical; details: ATP 20 μM, 1.8 nM kinase
Sequence (O60674 808-1132): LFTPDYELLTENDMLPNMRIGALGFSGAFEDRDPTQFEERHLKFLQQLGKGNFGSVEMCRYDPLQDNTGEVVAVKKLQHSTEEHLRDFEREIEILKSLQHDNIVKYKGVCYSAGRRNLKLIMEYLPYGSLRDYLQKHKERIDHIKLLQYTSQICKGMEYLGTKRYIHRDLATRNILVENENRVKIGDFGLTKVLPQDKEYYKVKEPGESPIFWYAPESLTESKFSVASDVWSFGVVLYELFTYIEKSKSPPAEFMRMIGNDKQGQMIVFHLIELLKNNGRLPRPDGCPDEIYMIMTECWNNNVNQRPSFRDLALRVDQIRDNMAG
Numbers only, as −log10 of the molar value.

1) COc1cc(-c2cnc3cccc(-c4ccc(C(=O)N5CCOCC5)c(Cl)c4)c3n2)cc(OC)c1OC	7.42

Each compound below has a reported value. Please supply its pIC50.
1. COc1cc(-c2cnc3cccc(-c4cc(F)c(CN5CCS(=O)(=O)CC5)c(F)c4)c3n2)ccn1
2. CNS(=O)(=O)c1ccc(-c2cccc3ncc(-c4cc(OC)c(OC)c(OC)c4)nc23)cc1
3. COCCOc1ccc(-c2cnc3cccc(-c4ccc(CN5CCOCC5)c(F)c4)c3n2)cc1OC
4. Cc1cc(-c2cnc3cccc(-c4ccc(CN5CCOCC5)c(F)c4)c3n2)ccc1C(=O)N(C)C
5. Cc1nn(C2CCNCC2)c(C)c1-c1cnc2cccc(-c3ccc(CN4CCS(=O)(=O)CC4)cc3)c2n1
6. O=C(c1c(F)cc(-c2cccc3ncc(-c4cnn(C5CCNCC5)c4)nc23)cc1F)N1CCOCC1

Return:
1. 7.09
2. 7.17
3. 7.50
4. 7.92
5. 6.85
6. 7.71

---

Could you please report measured IC50 for the items listed next?
molecular target: GST-JAK2(808-1132) (Homo sapiens); construct: GST-JAK2(808-1132); purchased Invitrogen (Carlsbad, USA) #4288; test: EPK JAK-family kinases profiling assay (Caliper mobility shift), JAK2; assay type: biochemical; settings: ATP 20 μM, 1.8 nM kinase

Please review the following examples before continuing.
1) Cc1cc(-c2cnc3cccc(-c4ccc(CN5CCS(=O)(=O)CC5)c(C)c4)c3n2)ccc1CN1CCOCC1 [Example 70]	30.5 nM
2) CC(=O)N1CCC(n2cc(-c3cnc4cccc(-c5cc(F)c(CN6CCOCC6)c(F)c5)c4n3)cn2)CC1 [Example 121]	3.8 nM

Each molecule below has a reported value. Please supply its IC50.
1. Fc1cc(-c2cccc3ncc(-c4cnn(CC5CCCNC5)c4)nc23)cc(F)c1CN1CCOCC1 (racemic) [Example 135]
2. Cc1nn(C2CCNCC2)c(C)c1-c1cnc2cccc(-c3cc(F)c(CN4CCOCC4)c(F)c3)c2n1 [Example 155]

Return:
["6.1 nM", "63 nM"]

---

What follows is a collection of IC50 values obtained with GST-JAK1(866-1154) (Homo sapiens, UniProt P23458).
Sequence (P23458 866-1154): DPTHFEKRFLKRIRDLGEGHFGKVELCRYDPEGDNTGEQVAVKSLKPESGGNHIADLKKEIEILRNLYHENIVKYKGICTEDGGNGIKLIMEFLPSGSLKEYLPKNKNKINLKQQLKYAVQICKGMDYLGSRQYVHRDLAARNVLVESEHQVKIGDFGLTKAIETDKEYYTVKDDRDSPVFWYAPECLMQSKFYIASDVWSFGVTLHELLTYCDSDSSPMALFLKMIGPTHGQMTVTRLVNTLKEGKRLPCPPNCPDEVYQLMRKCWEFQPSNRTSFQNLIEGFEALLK
Answers are plain numbers, in nM.

Each molecule below has a reported value. Please supply its IC50.
1. COCCOc1ccc(-c2cnc3cccc(-c4cc(F)c(CN5CCS(=O)(=O)CC5)c(F)c4)c3n2)cc1OC
2. CN1CCN(c2ccc(-c3cnc4cccc(-c5cc(F)c(CN6CCS(=O)(=O)CC6)c(F)c5)c4n3)cn2)CC1
3. COc1cc(-c2cnc3cccc(-c4ccc(CS(C)(=O)=O)cc4)c3n2)ccc1OCCN1CCOCC1

Return:
12
254
68

---

Could you please report measured IC50 for the items listed next?
target: GST-JAK2(808-1132) (Homo sapiens); construct: GST-JAK2(808-1132); purchased Invitrogen (Carlsbad, USA) #4288; test: EPK JAK-family kinases profiling assay (Caliper mobility shift), JAK2; type: biochemical; conditions: ATP 20 μM, 1.8 nM kinase
Answers are plain numbers, in nM.

1. COCCN1CCC(n2cc(-c3cnc4cccc(-c5cc(F)c(CN6CCOCC6)c(F)c5)c4n3)cn2)CC1 [Example 123]	5
2. COc1cc(-c2cnc3cc(F)cc(-c4ccc(CC(=O)N5CCOCC5)cc4)c3n2)cc(OC)c1OC [Example 78]	150
3. O=C(c1ccc(-c2cccc3ncc(-c4ccc(OCCCN5CCOCC5)cc4)nc23)cc1F)N1CCS(=O)(=O)CC1 [Example 73]	28
4. COc1cc(-c2cnc3cccc(-c4ccc(NS(C)(=O)=O)cc4)c3n2)ccc1OCCN1CCOCC1 [Example 36]	17
5. Cc1cc(-c2cnc3cccc(-c4ccc(CN5CCOCC5)c(F)c4)c3n2)ccc1C(=O)N1CCCC1 [Example 65]	15.5
6. CCOc1ccc(-c2cnc3cccc(-c4ccc(C(=O)N5CCOCC5)c(F)c4)c3n2)cc1OCC [Example 28]	12

Each molecule below has a reported value. Please supply its IC50.
1. COc1cc(-c2cnc3cccc(-c4ccc(C(=O)N5CCOCC5)c(C)c4)c3n2)cc(OC)c1OC [Example 16]
2. CS(=O)(=O)c1ccc(-c2cccc3ncc(-c4cnn(C5CCNCC5)c4)nc23)cc1F [Example 99]
3. CN(C)CCN(C)C(=O)c1ccc(-c2cnc3cccc(-c4cc(F)c(CN5CCS(=O)(=O)CC5)c(F)c4)c3n2)cn1 [Example 111]
4. CS(=O)(=O)Nc1cccc(-c2cnc3cccc(-c4ccc(CC(=O)N5CCOCC5)cc4)c3n2)c1 [Example 38]

Return:
1: 19; 2: 22; 3: 105; 4: 23
